Ref: DBAASP

# key: entry, value: MIC
system: Pseudomonas aeruginosa; experiment: ≥ marks a high value that may be exact or a test limit, other limits are often not marked, values filed in µg/mL are converted to µM
API: value field is a number in µM; no unit string.

smiles: CC[C@H](C)[C@H](NC(=O)[C@H](C)NC(=O)[C@H](CCCCN)NC(=O)[C@H](C)NC(=O)[C@@H](NC(=O)[C@H](CO)NC(=O)[C@H](CCCCN)NC(=O)[C@@H](NC(=O)[C@H](Cc1c[nH]c2ccccc12)NC(=O)[C@H](CCCCN)NC(=O)[C@H](CC(C)C)NC(=O)[C@@H](NC(=O)[C@H](CO)NC(=O)[C@H](CCCCN)NC(=O)[C@H](C)NC(=O)[C@@H](NC(=O)[C@H](C)NC(=O)[C@@H](N)CCCCN)[C@@H](C)CC)[C@@H](C)CC)[C@@H](C)CC)[C@@H](C)CC)C(N)=O
unitInfo: µM
observedMeasurement: 11.2

Tell me measured MIC for `CC[C@H](C)[C@H](NC(=O)[C@H](C)NC(=O)CNC(=O)[C@H](Cc1c[nH]c2ccccc12)NC(=O)[C@H](CCCCN)NC(=O)[C@@H](N)CC(C)C)C(=O)N[C@@H](CC(C)C)C(=O)N[C@@H](CCCCN)C(=O)N[C@@H](Cc1cnc[nH]1)C(=O)N[C@H](C(=O)N[C@H](C(=O)N[C@@H](CCCCN)C(N)=O)[C@@H](C)CC)[C@@H](C)CC` please.
46.7
